Provenance of the data: patent US9409884B2

# Assayed system: AMPK
# Method summary: AMPK activation, enzyme-linked immunosorbent assay
# Assay type: biochemical
# Measurement context: Table 14, compounds of Table 7
Endpoint name: EC50

Exercise: # get_value(readout='EC50', item= COc1ccc(C(=O)C2CCN(C(=O)c3ccc(C(=O)NC4CCN(Cc5ccc(F)c(OC)c5)C[C@H]4F)cn3)CC2)cc1 (stereo partly drawn) [Compound 7-43] )
Solution: < 1000 nM

Exercise: Fill in the blank: the reported EC50 of COCCN(C(=O)c1ccc(C(=O)N2CCC(C(=O)c3ccc(OC)cc3)CC2)nc1)C1CCN(Cc2ccc(C#N)cc2)CC1 [Compound 7-17] is ____.
Solution: < 1000 nM

Exercise: EC50 for N#Cc1ccc(CN2CCC(NC(=O)c3ccc(N4CCN(c5ccc(C(=O)C6CC6)cc5)CC4)nc3)CC2)cc1 [Compound 7-81] ?
Solution: < 1000 nM

====

# Assayed system: AMPK
# Method summary: AMPK activation, enzyme-linked immunosorbent assay
# Format: biochemical
# Measurement context: Table 13, compounds of Table 6
pEC50: −log10 of the molar value.
Endpoint name: pEC50

Below: 10 compounds and their reported pEC50.
| Smiles code | Assayed system | Endpoint name | Value |
| --- | --- | --- | --- |
| N#Cc1ccc(CN2CCC(NC(=O)c3cc4cc(CN5CCC(Oc6ccc(C(F)(F)F)cc6)CC5)ccc4o3)CC2)cc1 | AMPK | pEC50 | > 7.00 |
| CS(=O)(=O)c1ccc(CN2CCN(C(=O)c3ccc4oc(C(=O)NC5CCN(Cc6ccc(OC(F)(F)F)c(Cl)c6)CC5)cc4c3)CC2)cc1 | AMPK | pEC50 | 6.00 to 7.00 |
| O=C(Nc1ccc(Oc2ccccc2)cc1)c1cc2cc(C(=O)N3CCN(Cc4ccc(F)cc4)CC3)ccc2o1 | AMPK | pEC50 | > 7.00 |
| CS(=O)(=O)c1ccc(N2CCN(C(=O)c3ccc4oc(C(=O)NC5CCN(Cc6ccc(C#N)cc6)CC5)cc4c3)CC2)cc1 | AMPK | pEC50 | 6.00 to 7.00 |
| N#Cc1ccc(CN2CCC(NC(=O)c3cc4cc(C(=O)NC5CCN(Cc6ccn(-c7ccc(C#N)cc7)n6)CC5)ccc4o3)CC2)cc1 | AMPK | pEC50 | 5.00 to 6.00 |
| COc1ccc(CN2CCC(NC(=O)c3cc4cc(C(=O)N5CCN(Cc6ccc(S(C)(=O)=O)c(C(F)(F)F)c6)CC5)ccc4o3)CC2)cc1F | AMPK | pEC50 | > 7.00 |
| N#Cc1ccc(CN2CCC(NC(=O)c3cc4cc(NC(=O)C5CCN(c6ccc(C(F)(F)F)cc6)CC5)ccc4o3)CC2)cc1 | AMPK | pEC50 | 5.00 to 6.00 |
| CS(=O)(=O)c1ccc(OC2CCN(C(=O)c3ccc4oc(C(=O)NC5CCN(Cc6ccc(OC(F)(F)F)cc6)CC5)cc4c3)CC2)cc1 | AMPK | pEC50 | > 7.00 |
| CS(=O)(=O)c1ccc(CN2CCN(C(=O)c3ccc4oc(C(=O)NC5CCN(Cc6cccc(C(F)(F)F)c6)CC5)cc4c3)CC2)cc1 | AMPK | pEC50 | > 7.00 |
| CS(=O)(=O)c1ccc(C(=O)Nc2ccc3oc(C(=O)NC4CCN(Cc5ccc(C#N)cc5)CC4)cc3c2)cc1 | AMPK | pEC50 | 5.00 to 6.00 |

Exercise: Identify the measured pEC50 of O=C(NC1CCN(Cc2ccc(OC(F)(F)F)c(F)c2)CC1)c1cc2cc(C(=O)N3CCN(c4cccc(C(F)(F)F)c4)CC3)ccc2o1 for AMPK.
Solution: > 7.00

Exercise: Notebook entry, AMPK assay: pEC50 of N#Cc1ccc(CN2CCC(NC(=O)c3cc4cc(C(=O)N5CCC(Oc6ccc(F)cc6)CC5)ccc4o3)CC2)cc1 = ?
Solution: > 7.00

Exercise: Can you look up pEC50 on AMPK for Cc1cc(C(=O)Nc2ccc3oc(C(=O)NC4CCN(Cc5ccc(C#N)cc5)CC4)cc3c2)no1 ?
Solution: 6.00 to 7.00

Exercise: What reported pEC50 corresponds to COc1ccc(CN2CCC(NC(=O)c3cc4cc(C(=O)N5CCN(Cc6ccc(S(=O)(=O)C7CC7)cc6)CC5)ccc4o3)CC2)cc1F on AMPK?
Solution: > 7.00

Exercise: Any idea what pEC50 came out for COc1ccc(CN2CCC(NC(=O)c3cc4cc(C(=O)N5CC[C@H](Oc6ccc(S(C)(=O)=O)cc6)[C@@H](F)C5)ccc4o3)CC2)cc1 on AMPK?
Solution: > 7.00

Exercise: Hi! What's the reported pEC50 for COc1ccc(CN2CCC(NC(=O)c3cc4cc(C(=O)N5CCN(Cc6ccc(-n7cccn7)cc6)CC5)ccc4o3)CC2)cc1 on AMPK?
Solution: > 7.00
